Test system: LN229 human glioblastoma cells
ASSAY_NOTES: Clonogenicity assay LN229
Format: cell-based
EXPERIMENTAL_CONDITIONS: LN-229, 336 h, LN229, normoxia, 14 days
QUANTITY_NAME: pIC50
The scale used: pIC50 is minus the common logarithm of the concentration in molar units.

Query :: Fill in: pIC50 of `COc1cc(CN(C(C)C)S(=O)(=O)c2ccccn2)cc2c1OC(C)(C)C=C2` is ___
Result :: 4.16

Query :: Moving on to the next compound: `CC(C)N(Cc1ccc2c(c1)C=CC(C)(C)O2)S(=O)(=O)c1ccccn1`
Result :: 4.09

====

Assign half-life to each entry below.
ASSAY_NOTES: Metabolic stability in homogenates of mouse liver
Format: in vitro ADME
EXPERIMENTAL_CONDITIONS: mouse, mouse liver homogenate, homogenates of mouse liver in PBS 1:2 (w/v), ex vivo; read-out: half-life (hepatic metabolic stability) (converted)

Query :: What measured half-life goes with `COc1cc(CN(C(C)C)S(=O)(=O)c2ccccn2)cc2c1OC(C)(C)C=C2` ?
Result :: 13 to 20 h

Query :: Same thing, different compound: COc1ccc(S(=O)(=O)N(Cc2ccc3c(c2)C=CC(C)(C)O3)c2ccccc2)cc1OC [Compound 1, reference compound]
Result :: 11 h

Query :: Try this compound next: `CC1(C)C=Cc2cc(CN(CC3CC3)S(=O)(=O)c3ccccn3)ccc2O1`
Result :: 13 to 20 h

Query :: Try the compound `CC(C)N(Cc1ccc2c(c1)C=CC(C)(C)O2)S(=O)(=O)c1ccccn1`
Result :: 13 to 20 h

====

ASSAY_NOTES: log P7.4 by shake flask or HPLC method (OECD guidelines)
Type: physicochemical
EXPERIMENTAL_CONDITIONS: pH 7.4
QUANTITY_NAME: log P7.4
Enter a number only.

Query :: # log P7.4 lookup, item `CC(C)CN(Cc1ccc2c(c1)C=CC(C)(C)O2)S(=O)(=O)c1ccncc1`
Result :: 3.6

Query :: Next: `CC1(C)C=Cc2cc(CN(CC3CC3)S(=O)(=O)c3ccccn3)ccc2O1`
Result :: 3.1

Query :: Record: `CC(C)CN(Cc1ccc2c(c1)C=CC(C)(C)O2)S(=O)(=O)c1ccccn1`
Result :: 4.1

Query :: Try `CC(C)CN(Cc1ccc2c(c1)C=CC(C)(C)O2)S(=O)(=O)c1nccs1` next.
Result :: 4.4

Query :: Now try `CC1(C)C=Cc2cc(CN(C3CC3)S(=O)(=O)c3ccccn3)ccc2O1` .
Result :: 3.0

Query :: Queued: COc1ccc(S(=O)(=O)N(Cc2ccc3c(c2)C=CC(C)(C)O3)c2ccccc2)cc1OC [Compound 1, reference compound]
Result :: 3.7

Query :: Item: `CC1(C)C=Cc2cc(CN(C3CCCC3)S(=O)(=O)c3ccccn3)ccc2O1`
Result :: 3.8

Query :: Entry `CC(C)N(Cc1ccc2c(c1)C=CC(C)(C)O2)S(=O)(=O)c1ccccn1` please
Result :: 2.0

Query :: Another compound to check: `CC1(C)C=Cc2cc(CN(C3CCC3)S(=O)(=O)c3ccccn3)ccc2O1`
Result :: 3.0

Query :: Subsequent entry: `CC(C)CN(Cc1ccc2c(c1)C=CC(C)(C)O2)S(=O)(=O)c1nccn1C`
Result :: 3.1
